Values were extracted from patent US20050282743A1.

target: T1, GST-X-11 beta PDZ domain 2 (Rattus norvegicus (Rat)), O35431
T1 chain: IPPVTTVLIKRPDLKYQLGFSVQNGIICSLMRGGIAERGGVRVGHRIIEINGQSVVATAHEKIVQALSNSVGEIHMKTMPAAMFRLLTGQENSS
assay-method-text: G' assay; further: key of the grades not given here
measurement-name: Classification (A450 class)
Kindly answer with a numeric value in A450 class, unit omitted.

Worked examples, 2 binders total:
{"binder": "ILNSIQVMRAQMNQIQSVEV (modifications not checked) [ephrin B2]", "Classification, A450 class": 1}
{"binder": "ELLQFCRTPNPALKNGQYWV (modifications not checked) [CSPG4 (chondroitin sulfae proteoglycan 4, melanoma-associated)]", "Classification, A450 class": 2}

For the binder shown here, NGGFAVDKSDTISFTQTSQF (modifications not checked) [glutamate transporter 3] , give the reported Classification.
1

Look up Classification for this binder: HDFRRAFKKILARGDRKRIV (modifications not checked) [alpha-2A Adrenergic receptor]
1

Quick check: Classification of ALVLIAFCIIRRRPSAYQAL (modifications not checked) [CD68] ?
1
